Tested on: HepG2
Experiment description: cytotoxicity call (relative viability < 0.9)
Particulars: 10 µM
Out of some 39,000 compounds screened, about 3,300 (8.5%) were called active. The sample as a whole holds a higher share of actives than the screen did.
Outcomes: TRUE (active), FALSE (inactive)

Given smiles | Subject of test | Label value
COc1ccc(NC(=O)Nc2ccc3c(c2)CC(=O)N([C@H](C)CO)C[C@H](C)[C@@H](CN(C)Cc2ccc(-c4ccccc4)cc2)O3)cc1 | HepG2 | FALSE
COc1ccc(NC(=O)Nc2ccc3c(c2)CC(=O)N([C@H](C)CO)C[C@H](C)[C@H](CN(C)Cc2ccc(-c4ccccc4)cc2)O3)cc1 | HepG2 | TRUE
CO[C@@H]1CN(C)C(=O)c2cc(NS(=O)(=O)c3ccccc3)ccc2OC[C@H](C)N(C(=O)NC(C)C)C[C@H]1C | HepG2 | FALSE
Cc1ccc(S(=O)(=O)Nc2ccc3c(c2)C(=O)N([C@H](C)CO)C[C@H](C)[C@H](CN(C)Cc2ccc(Cl)c(Cl)c2)O3)cc1 | HepG2 | TRUE
C[C@H]1CN([C@@H](C)CO)S(=O)(=O)c2ccc(C#CCN(C)C)cc2O[C@H]1CN(C)S(C)(=O)=O | HepG2 | FALSE
Cc1noc(C)c1NC(=O)N(C)C[C@@H]1Oc2ccc(NC(=O)c3ccncc3)cc2C(=O)N([C@@H](C)CO)C[C@H]1C | HepG2 | FALSE
Cc1noc(C)c1S(=O)(=O)Nc1cccc2c1O[C@@H](CN(C)S(=O)(=O)c1cccs1)[C@@H](C)CN([C@@H](C)CO)C2=O | HepG2 | FALSE
O=S(=O)([O-])c1cc(I)c(O)c2ncccc12.[Na+] | HepG2 | TRUE
Cc1ncc(NC(=O)c2cccc(C(F)(F)F)c2)cc1-c1cnc(OC2CCOCC2)c(N2CCOCC2)c1 | HepG2 | FALSE
C[C@H]1CN([C@@H](C)CO)C(=O)c2cc(NC(=O)C3CCCCC3)ccc2O[C@H]1CN(C)C(=O)Nc1ccc(C(F)(F)F)cc1 | HepG2 | FALSE
COc1ccc(NC(=O)Nc2ccc3c(c2)CC(=O)N([C@@H](C)CO)C[C@@H](C)[C@H](CN(C)Cc2ccc(-c4ccccc4)cc2)O3)cc1 | HepG2 | TRUE
COc1ccc(-c2ccccn2)cc1 | HepG2 | FALSE
Cn1nc(-c2ccccn2)nc2c(=O)n(C)c(=O)nc1-2 | HepG2 | TRUE
Cn1c(=O)[nH]c2nnc(-c3ccccn3)nc2c1=O | HepG2 | FALSE
COc1ccc(NC(=O)Nc2ccc3c(c2)C(=O)N([C@@H](C)CO)C[C@H](C)[C@H](CN(C)S(=O)(=O)c2cccs2)OCCCC[C@H](C)O3)cc1 | HepG2 | FALSE
Clc1nccc2ccccc12 | HepG2 | FALSE
C[C@@H]1CN([C@H](C)CO)C(=O)c2cccc(NC(=O)C3CCOCC3)c2O[C@@H]1CN(C)Cc1ccc(C(=O)O)cc1 | HepG2 | FALSE
CSc1ccc(-c2nnn(CC(N)=O)n2)cc1 | HepG2 | FALSE
Cc1ccc2c(Cl)cc(Cl)c(O)c2n1 | HepG2 | FALSE
COc1ccc(NC(=O)Nc2ccc3c(c2)CC(=O)N([C@@H](C)CO)C[C@@H](C)[C@@H](CN(C)Cc2ccc(-c4ccccc4)cc2)O3)cc1 | HepG2 | TRUE
NCc1cc(-c2ccccc2Cl)on1 | HepG2 | FALSE
COc1ccc(NC(=O)Nc2ccc3c(c2)CC(=O)N([C@@H](C)CO)C[C@H](C)[C@H](CN(C)Cc2ccc(-c4ccccc4)cc2)O3)cc1 | HepG2 | TRUE
C[C@@H]1CN([C@H](C)CO)C(=O)c2cc(NC(=O)Nc3ccc(F)cc3)ccc2O[C@@H](C)CCCCO[C@H]1CN(C)S(=O)(=O)c1ccccc1 | HepG2 | FALSE
Cc1ccc(S(=O)(=O)Nc2ccc3c(c2)C(=O)N([C@@H](C)CO)C[C@@H](C)[C@H](CN(C)Cc2ccc(Cl)c(Cl)c2)O3)cc1 | HepG2 | FALSE
c1cnc2ccc3ncccc3c2c1 | HepG2 | FALSE

----------
Test system: HepG2
Experiment description: cytotoxicity call (relative viability < 0.9)
Particulars: 10 µM
Among all 39,000 compounds or so, about 3,300 (8.5%) were called active. The list comes from a sample in which actives are over-represented; it also holds close analogues and randomly drawn compounds.
Classes used: active, inactive

Given smiles | Subject of test | Label value
C[C@H]1CN([C@@H](C)CO)C(=O)Cc2cc(NS(=O)(=O)c3ccc(F)cc3)ccc2O[C@@H]1CN(C)Cc1ccc(Cl)c(Cl)c1 | HepG2 | active
Cc1noc(C)c1NC(=O)Nc1ccc2c(c1)C(=O)N([C@H](C)CO)C[C@@H](C)[C@@H](CN(C)Cc1ccc(Cl)c(Cl)c1)OCCCC[C@H](C)O2 | HepG2 | active
COc1ccc(CN(C)C[C@@H]2OCCCC[C@H](C)Oc3ccc(NC(=O)Nc4ccc5c(c4)OCO5)cc3C(=O)N([C@H](C)CO)C[C@@H]2C)cc1 | HepG2 | inactive
Cc1noc(C)c1NC(=O)Nc1ccc2c(c1)C(=O)N([C@H](C)CO)C[C@H](C)[C@@H](CN(C)Cc1ccc(Cl)c(Cl)c1)OCCCC[C@@H](C)O2 | HepG2 | inactive
Cc1cccn2c(=O)c(-c3nn[nH]n3)cnc12 | HepG2 | inactive
CCC(=O)N1C[C@]2(C1)CN([C@H](CO)c1c2c2ccc(cc2n1C)OC)C(=O)CN1CCOCC1 | HepG2 | inactive
Cc1noc(C)c1S(=O)(=O)Nc1ccc2c(c1)C(=O)N([C@@H](C)CO)C[C@@H](C)[C@H](CN(C)C(=O)Nc1ccccc1)OCCCC[C@@H](C)O2 | HepG2 | inactive

----------
System: HepG2
Experiment description: cytotoxicity call (relative viability < 0.9)
Particulars: 10 µM
Screen size: about 39,000 compounds; about 3,300 (8.5%) were called active. Shown is part of a subset that was picked to be rich in actives.
Classes used: active, inactive

Given smiles | Label value
CCS(=O)(=O)N1CCc2ccc(N)cc2C1 | inactive
NC[C@@H]1O[C@H](C23CC4CC(CC(C4)C2)C3)Cc2c1ccc(O)c2O | inactive
CCS(=O)(=O)N1CC[C@]2(CC1)CN(Cc1ccc3c(c1)OCO3)[C@H](CO)c1c2c2ccc(cc2n1C)OC | inactive
NC[C@H](c1ccco1)N1CCc2ccccc2C1 | inactive
COCC(=O)Nc1ccc2c(c1)C(=O)N(C)[C@@H]1CC[C@H](CC(=O)N3CCc4ccccc4C3)O[C@H]1CO2 | inactive
C[C@@H]1CN([C@@H](C)CO)C(=O)c2cccc(NS(=O)(=O)c3cn(C)cn3)c2O[C@@H]1CN(C)C(=O)Nc1ccc2c(c1)OCO2 | inactive
CCCNC(=O)Nc1ccc2c(c1)C(=O)N(C)C[C@@H](OC)[C@H](C)CN(C(=O)C1CCOCC1)[C@@H](C)CO2 | inactive
C[C@@H]1CN([C@@H](C)CO)C(=O)c2cc(NS(C)(=O)=O)ccc2O[C@H]1CN(C)C(=O)Nc1ccc2c(c1)OCO2 | inactive
O=C(O)c1ccc(O)c(O)c1 | inactive
COc1ccc(S(=O)(=O)N(C)C[C@H]2OCCCC[C@@H](C)Oc3ccc(NC(=O)Nc4c(C)noc4C)cc3C(=O)N([C@H](C)CO)C[C@@H]2C)cc1 | inactive
C[C@@H]1CN([C@H](C)CO)S(=O)(=O)c2ccc(-c3ccc(F)cc3)cc2O[C@@H]1CN(C)C(=O)C1CCOCC1 | inactive
COc1ccc(S(=O)(=O)N(C)C[C@H]2OCCCC[C@H](C)Oc3ccc(NC(=O)Nc4c(C)noc4C)cc3C(=O)N([C@@H](C)CO)C[C@@H]2C)cc1 | active
N#Cc1ccc(O)c(O)c1 | active
CCCN(C)C[C@@H]1OCCCC[C@H](C)Oc2ccc(NC(=O)Nc3ccc(F)cc3)cc2C(=O)N([C@H](C)CO)C[C@@H]1C | inactive
Cc1ccc(S(=O)(=O)Nc2ccc3c(c2)C(=O)N([C@H](C)CO)C[C@@H](C)[C@H](CN(C)Cc2ccc4c(c2)OCO4)OCCCC[C@@H](C)O3)cc1 | inactive
c1ccc(Cn2c(-c3ccc(OC[C@H](C4CCNCC4)n4c(-c5ccccc5)nc5ccccc54)cc3)nc3ccccc32)cc1 | active
O=C(O)Cn1nc2ccccc2n1 | inactive
C[C@@H]1CN([C@H](C)CO)C(=O)c2cc(NC(=O)Cc3ccccc3)ccc2O[C@@H]1CN(C)C(=O)Nc1cccc2ccccc12 | inactive
C[C@@H]1CCCCO[C@@H](CN(C)C(=O)c2ccccc2)[C@H](C)CN([C@@H](C)CO)C(=O)c2cc(NC(=O)Nc3ccccc3)ccc2O1 | inactive
C[C@@H]1CCCCO[C@H](CN(C)Cc2ccncc2)[C@@H](C)CN([C@@H](C)CO)C(=O)c2cc(NC(=O)Nc3ccc4c(c3)OCO4)ccc2O1 | inactive
COc1ccc(S(=O)(=O)N(C)C[C@H]2OCCCC[C@H](C)Oc3ccc(NC(=O)Nc4c(C)noc4C)cc3C(=O)N([C@@H](C)CO)C[C@H]2C)cc1 | active
C[C@@H]1CCCCO[C@H](CN(C)C(=O)c2ccncc2)[C@H](C)CN([C@H](C)CO)C(=O)c2cc(NS(C)(=O)=O)ccc2O1 | inactive
O=C(C[C@@H]1CC[C@H]2[C@@H](COC[C@@H](O)CN2Cc2ccccc2F)O1)N[C@@H]1CCN(Cc2ccccc2)C1 | inactive
Cc1cccc(-c2nc3ccccc3n2CCC(C)C)c1 | inactive
COc1ccc(S(=O)(=O)N(C)C[C@@H]2OCCCC[C@H](C)Oc3ccc(NC(=O)Nc4c(C)noc4C)cc3C(=O)N([C@H](C)CO)C[C@@H]2C)cc1 | inactive
CN1CCN(C(=O)C[C@@H]2CC[C@H]3[C@@H](COc4ccc(NC(=O)C5CCOCC5)cc4C(=O)N3C)O2)CC1 | inactive
